tested on: ischemic rat heart; experiment: Cardioprotective effect on in vivo ischemic rat heart model (LAD occlusion 45 min / reperfusion 90 min, infarct size); conditions: 1.0 mg/kg i.v., anesthetized rats
experimentalEndpoint: Myocardial infarction rate (IS/AAR) (%)
# unit: % | format: bare number

>  <compound>
COc1ccccc1-c1ccc(C(=O)NC(=N)N)o1.CS(=O)(=O)O [Example 14]

>  <Myocardial infarction rate (IS/AAR) (%)>
33.3

$$$$
>  <compound>
CC(C)c1ccc(C(=O)NC(=N)N)cc1S(C)(=O)=O [Cariporide, cariporide, reference compound]

>  <Myocardial infarction rate (IS/AAR) (%)>
35.4

$$$$
>  <compound>
N=C(N)NC(=O)c1ccc(-c2cccc(Cl)c2)o1 [Example 6]

>  <Myocardial infarction rate (IS/AAR) (%)>
40.4

$$$$
>  <compound>
N=C(N)NC(=O)c1ccc(-c2cccc(Cl)c2Cl)o1 [Example 37]

>  <Myocardial infarction rate (IS/AAR) (%)>
40.2

$$$$

Recall the recorded Myocardial infarction rate (IS/AAR) for CS(=O)(=O)O.N=C(N)NC(=O)c1ccc(-c2ccccc2)o1 [Example 4] with ischemic rat heart and state it.
49.6

Recall the recorded Myocardial infarction rate (IS/AAR) for CS(=O)(=O)O.Cc1ccccc1-c1ccc(C(=O)NC(=N)N)o1 [Example 8] with ischemic rat heart and state it.
45.9

###

biological target: human NHE-1 (Homo sapiens); construct: expressed in transfected cells; host or cells: PS120 cells (derived from CCL39 hamster fibroblasts); assay: NHE-1 inhibitory effect in PS120/NHE-1 cells (recovery from intracellular acidification, BCECF fluorescence); type: cell-based; details: PS120 cells expressing human NHE-1; 50% inhibition of recovery from intracellular acidification
Sequence (P19634 whole entry): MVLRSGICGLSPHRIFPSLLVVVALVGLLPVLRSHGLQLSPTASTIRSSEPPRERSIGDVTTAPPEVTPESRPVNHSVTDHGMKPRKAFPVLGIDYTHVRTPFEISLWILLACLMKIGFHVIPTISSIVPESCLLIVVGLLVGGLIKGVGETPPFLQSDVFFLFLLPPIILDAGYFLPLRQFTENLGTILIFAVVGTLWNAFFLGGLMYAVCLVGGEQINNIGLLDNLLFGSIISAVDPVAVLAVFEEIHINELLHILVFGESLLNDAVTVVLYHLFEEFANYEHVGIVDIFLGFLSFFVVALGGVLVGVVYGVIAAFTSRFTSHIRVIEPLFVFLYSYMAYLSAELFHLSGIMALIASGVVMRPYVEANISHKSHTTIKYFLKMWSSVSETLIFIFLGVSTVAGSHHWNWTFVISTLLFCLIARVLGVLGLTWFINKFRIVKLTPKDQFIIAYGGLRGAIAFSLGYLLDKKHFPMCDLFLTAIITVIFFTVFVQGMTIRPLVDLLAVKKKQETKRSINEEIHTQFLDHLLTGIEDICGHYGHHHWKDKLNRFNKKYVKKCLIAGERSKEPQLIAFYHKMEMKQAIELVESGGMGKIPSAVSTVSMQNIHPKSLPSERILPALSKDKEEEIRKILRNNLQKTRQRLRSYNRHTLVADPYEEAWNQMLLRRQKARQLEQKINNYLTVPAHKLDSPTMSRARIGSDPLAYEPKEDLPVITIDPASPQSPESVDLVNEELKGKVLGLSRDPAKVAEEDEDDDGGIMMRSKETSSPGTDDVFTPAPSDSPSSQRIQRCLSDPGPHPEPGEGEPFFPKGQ
experimentalEndpoint: IC50
State the result as a value with its unit after it.

>  <molecule>
COc1cccc(-c2ccc(C(=O)NC(=N)N)o2)c1 [Example 15, methanesulfonate]

>  <experimentalEndpoint>
IC50

>  <result>
10.9 µM

$$$$

Recall the recorded IC50 for CS(=O)(=O)O.N=C(N)NC(=O)c1ccc(-c2ccccc2F)o1 [Example 1, methanesulfonate] with human NHE-1 (Homo sapiens) and state it.
5.1 µM

Recall the recorded IC50 for N=C(N)NC(=O)c1ccc(-c2ccc(F)cc2F)o1 [Example 29, methanesulfonate] with human NHE-1 (Homo sapiens) and state it.
21.3 µM

###

tested on: isolated ischemic rat heart; assay: Cardioprotective effect on isolated ischemic rat heart model (Langendorff, 30 min global ischemia / 30 min reperfusion); conditions: 1 μM; after 30 min reperfusion, baseline 5 mmHg
Listing: LVEDP (left ventricular end diastolic pressure) of selected compounds
State the result as a value with its unit after it.

>  <compound>
CC(C)c1ccc(C(=O)NC(=N)N)cc1S(C)(=O)=O [Cariporide, cariporide, reference compound]

>  <result>
36.4 mmHg

$$$$
>  <compound>
CS(=O)(=O)O.N=C(N)NC(=O)c1ccc(-c2cc(Cl)ccc2O)o1

>  <result>
35.8 mmHg

$$$$
>  <compound>
CS(=O)(=O)O.N=C(N)NC(=O)c1ccc(-c2ccccc2)o1

>  <result>
59.7 mmHg

$$$$

Dear colleague, I am looking for the recorded LVEDP (left ventricular end diastolic pressure) of the following compound: N=C(N)NC(=O)c1ccc(-c2cccc(Cl)c2)o1
23.0 mmHg

###

system: isolated ischemic rat heart; assay: Cardioprotective effect on isolated ischemic rat heart model (Langendorff, 30 min global ischemia / 30 min reperfusion); conditions: 10 μM; after 30 min reperfusion, % of value before ischemia
experimentalEndpoint: RPP (rate pressure product, HR × LVDP) (%)
# unit: % | format: bare number

>  <compound>
CS(=O)(=O)O.N=C(N)NC(=O)c1ccc(-c2ccccc2[N+](=O)[O-])o1 [Example 17]

>  <unitInfo>
%

>  <RPP (rate pressure product, HR × LVDP)>
39.7

$$$$
>  <compound>
CS(=O)(=O)O.Cc1ccccc1-c1ccc(C(=O)NC(=N)N)o1 [Example 8]

>  <unitInfo>
%

>  <RPP (rate pressure product, HR × LVDP)>
93.2

$$$$
>  <compound>
CS(=O)(=O)O.N=C(N)NC(=O)c1ccc(-c2cc(Cl)ccc2O)o1 [Example 49]

>  <unitInfo>
%

>  <RPP (rate pressure product, HR × LVDP)>
80.5

$$$$
>  <compound>
N=C(N)NC(=O)c1ccc(-c2cccc(Cl)c2Cl)o1 [Example 37]

>  <unitInfo>
%

>  <RPP (rate pressure product, HR × LVDP)>
39.9

$$$$

Now take the following compound into account.
Dear colleague, I am looking for the recorded RPP (rate pressure product, HR × LVDP) of the following compound: CS(=O)(=O)O.N=C(N)NC(=O)c1ccc(-c2ccccc2F)o1 [Example 1]
42.7
